# credit: ChEMBL document CHEMBL4513216

Parameter INHIBITION: see the listing below.
System: Plasmodium berghei
Assay method text: Screen against P. berghei liver stage (PbLuc), transformed with Luciferase, at 10uM
Format: functional, HepG2
Recorded conditions: tested at 10 uM
Among all 69,000 compounds or so, about 8,600 (12%) showed an effect of 50% or more. Many of the other results were omitted from the sample, so strong results are more common in it than they were.
Quick reminder: number only, in %, skip the unit.

Solved cases below.
INSERT INTO results (compound, property_measured, readout_units, numeric_value) VALUES
  ('Cn1cc(C(=O)N(Cc2ccco2)Cc2cccs2)ccc1=O', 'INHIBITION', '%', 34),
  ('CCN(C)C(=O)c1cnc(-c2noc3cc(N4CCCCC4)ccc23)s1', 'INHIBITION', '%', 76.3),
  ('O=C(C1CC=CC1)N1CCC2(CC1)CNCCO2', 'INHIBITION', '%', 29),
  ('Cc1ccc(OCCC(=O)NC2CCc3nccn3C2)cc1 (configuration not stated)', 'INHIBITION', '%', 22.1),
  ('O=C(c1cnc(-c2noc3cc(N4CCCC4)ccc23)s1)N1CCCC1', 'INHIBITION', '%', 8.31);

Input: Please report the recorded INHIBITION for CC1CCN(c2ccc3c(-c4ncc(C(=O)O)s4)noc3c2)CC1 .
Output: 23.1

Input: Can you check O=C(C1CC1)N1CCC2(CC1)CNCCO2 next?
Output: 51.2

Input: Same question, CC(=O)N1CCCC2(C1)CN(C(=O)C1CCCCC1)CCO2 (configuration not stated) this time
Output: 9.97

Input: Request: O=C(NC1CC1)c1cnc(-c2noc3cc(N4CCCCC4)ccc23)s1
Output: 95.5
